pIC50: −log10 of the molar value.
Collected from the literature: pIC50 of various compounds toward Glycogen synthase kinase-3 alpha (Homo sapiens, UniProt P49840).
Property name: pIC50

>  <Sample smiles>
COc1cc(Nc2cc(Oc3ccc(NC(=O)Nc4cc(C(C)(C)C)cc(NS(C)(=O)=O)c4OC)c4ccccc34)ccn2)ccc1S(=O)(=O)N(C)CCCN1CCOCC1

>  <Target or system>
Glycogen synthase kinase-3 alpha (Homo sapiens, UniProt P49840)

>  <Qualifier sign>
=

>  <Recorded value>
5.44

$$$$
>  <Sample smiles>
COc1cc(Nc2nccc(Oc3ccc(NC(=O)Nc4cc(C(C)(C)C)cc(OCP(C)(C)=O)c4OC)c4ccccc34)n2)cc(OC)c1

>  <Target or system>
Glycogen synthase kinase-3 alpha (Homo sapiens, UniProt P49840)

>  <Qualifier sign>
=

>  <Recorded value>
5.69

$$$$
>  <Sample smiles>
C#Cc1cc(Nc2cc(Oc3ccc(NC(=O)Nc4cc(C(C)(C)C)cc(NS(C)(=O)=O)c4OC)c4ccccc34)ccn2)cc(C(=O)NCCN2CCOCC2)c1

>  <Target or system>
Glycogen synthase kinase-3 alpha (Homo sapiens, UniProt P49840)

>  <Qualifier sign>
=

>  <Recorded value>
5.08

$$$$
>  <Sample smiles>
COc1cc(CO)cc(Nc2cc(Oc3ccc(NC(=O)Nc4cc(C(C)(C)C)cc(C(N)=O)c4OC)c4ccccc34)ccn2)c1

>  <Target or system>
Glycogen synthase kinase-3 alpha (Homo sapiens, UniProt P49840)

>  <Qualifier sign>
=

>  <Recorded value>
5.64

$$$$
>  <Sample smiles>
CN1CC(=O)NC/C(Cl)=C/c2cc(ccn2)-c2ncnc(n2)Nc2cccc(c2)C1

>  <Target or system>
Glycogen synthase kinase-3 alpha (Homo sapiens, UniProt P49840)

>  <Qualifier sign>
>

>  <Recorded value>
8.00

$$$$
>  <Sample smiles>
COc1cc(Nc2cc(Oc3ccc(NC(=O)Nc4cc(C(C)(C)C)cc(NS(C)(=O)=O)c4OC)c4ccccc34)ccn2)ccc1C(=O)N(C)CCN1CCOCC1

>  <Target or system>
Glycogen synthase kinase-3 alpha (Homo sapiens, UniProt P49840)

>  <Qualifier sign>
=

>  <Recorded value>
6.22

$$$$
